Origin of the recorded values: PubChem BioAssay AID1996

# solubility kinetic values compiled below
Settings: buffer; pH 7.4; 200.0 µM

For orientation, consider the following solved cases.
input smiles: Cc1cccc(Cl)c1OCCN1CCCC1.O=C(O)C(=O)O
result: > 49.5 µg/mL
--
input smiles: O=C(/C=C/c1c(F)cccc1Cl)NCCCN1CCOCC1
result: > 49 µg/mL
--
input smiles: CCOC(=O)c1cc(C#N)c(N2CCCNCC2)nc1C(F)(F)F
result: > 51.3 µg/mL
--
input smiles: CCCCc1nnc(NC(=O)C2=COCCO2)s1
result: > 40.4 µg/mL
--
input smiles: Cc1cnc(C(=O)N2CCN(S(=O)(=O)c3cccc(Br)c3)CC2)cn1
result: > 63.8 µg/mL

# input Which solubility kinetic value is on record for `Cc1nnc(NC(=O)CSc2nccn2-c2ccc(F)cc2)s1` ?
# output > 52.4 µg/mL

---

Settings: buffer; pH 7.4; 200.0 µM
# solubility kinetic values compiled below

molecule: C/C(=N\S(=O)(=O)c1ccc(C)cc1)N(C)C
solubility kinetic: > 36 µg/mL
--
molecule: Cc1ccc([N+](=O)[O-])c(OCCN2C(=O)NC(C)(C)C2=O)c1
solubility kinetic: > 46.1 µg/mL
--
molecule: O=C1NCCCN1Cc1ccc(Cl)cc1
solubility kinetic: > 33.7 µg/mL
--
molecule: C=CCNC(=S)Nc1cccc(N)c1
solubility kinetic: > 31.1 µg/mL

# input Which solubility kinetic value is on record for `Cc1cccc(-c2nc(C#N)c(N3CCC(C)CC3)o2)c1` ?
# output < 0.2 µg/mL

# input Which solubility kinetic value is on record for Cc1ccc2oc(C(=O)NCC(c3ccco3)N(C)C)c(C)c2c1 (stereo not drawn) ?
# output > 49 µg/mL

# input Which solubility kinetic value is on record for `CC(=O)NCCc1nc2cc(NS(=O)(=O)c3ccccc3)ccc2n1C` ?
# output > 55.9 µg/mL

# input Which solubility kinetic value is on record for `COc1cccc2[nH]c3c(N4CCC5(CC4)OCCO5)ncnc3c12` ?
# output > 51.1 µg/mL

# input Which solubility kinetic value is on record for `O=C(CCC(=O)N1CCCCCC1)NCc1ccc(F)cc1` ?
# output > 46 µg/mL

# input Which solubility kinetic value is on record for `CCn1c(SCC(=O)NC2CCCC2)nnc1-c1cccnc1` ?
# output > 49.7 µg/mL

# input Which solubility kinetic value is on record for `CCC1(CC)C(=O)N(C)C(=O)NC1=NC` ?
# output > 31.7 µg/mL

# input Which solubility kinetic value is on record for `N[C@@H](Cc1ccc(O)cc1)C(=O)Nc1ccc2ccccc2c1` ?
# output > 46 µg/mL

# input Which solubility kinetic value is on record for `Cc1cc(=O)c(C(=O)O)nn1-c1ccc(Cl)cc1` ?
# output > 39.7 µg/mL

# input Which solubility kinetic value is on record for `CC(=O)N1CCN(c2ccccc2NC(=O)c2ccco2)CC1` ?
# output > 47 µg/mL

# input Which solubility kinetic value is on record for `Cc1cc(F)ccc1NC(=O)c1cccnc1` ?
# output > 34.5 µg/mL

# input Which solubility kinetic value is on record for `COc1cccc(C(=O)OCC(=O)NCc2ccc3c(c2)OCO3)c1OC` ?
# output > 56 µg/mL

# input Which solubility kinetic value is on record for CC1(C(=O)NNC(=S)NCC2CCCO2)CC1(Cl)Cl (stereo not drawn) ?
# output > 48.9 µg/mL

# input Which solubility kinetic value is on record for `Cn1cnnc1SCC(=O)NCCC1=CCCCC1` ?
# output > 42.1 µg/mL
